Origin of the recorded values: patent US20230174485A1

# target_of_assay: recombinant 12-LOX enzyme (Homo sapiens)
# Sequence (P18054 1-663): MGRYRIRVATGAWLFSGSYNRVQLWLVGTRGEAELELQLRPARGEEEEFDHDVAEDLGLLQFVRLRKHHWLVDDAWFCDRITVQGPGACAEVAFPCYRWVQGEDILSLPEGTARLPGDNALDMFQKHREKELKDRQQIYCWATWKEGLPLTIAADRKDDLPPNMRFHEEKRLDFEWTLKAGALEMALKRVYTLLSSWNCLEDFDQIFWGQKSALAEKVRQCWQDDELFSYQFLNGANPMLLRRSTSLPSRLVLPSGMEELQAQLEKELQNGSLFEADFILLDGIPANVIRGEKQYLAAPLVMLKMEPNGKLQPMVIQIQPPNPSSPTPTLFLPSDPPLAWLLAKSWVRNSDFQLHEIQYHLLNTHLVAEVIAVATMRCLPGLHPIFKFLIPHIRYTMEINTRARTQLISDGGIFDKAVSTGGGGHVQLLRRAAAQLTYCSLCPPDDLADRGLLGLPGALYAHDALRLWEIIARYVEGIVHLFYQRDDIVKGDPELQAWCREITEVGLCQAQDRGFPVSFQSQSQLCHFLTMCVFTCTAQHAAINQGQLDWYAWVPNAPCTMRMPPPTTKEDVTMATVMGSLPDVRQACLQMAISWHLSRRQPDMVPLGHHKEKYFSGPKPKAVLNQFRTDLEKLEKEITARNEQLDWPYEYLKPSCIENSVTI
# protocol_summary: 12-LOX fluorescent assay
# Format: biochemical
# condition_set: several values in one cell = repeat determinations; read-out: IC50 (μM) values for in vitro lipoxygenase inhibition, 12-LOX
Structures can show the parent of a compound that is named as a salt.
The following compounds are shown together with reported IC50 values.
Respond numerically; units are µM and should not be typed.

Sample records with IC50:
| compound | target_of_assay | IC50 [µM] |
| --- | --- | --- |
| c1ccc(N(CCCn2cncn2)c2ccc3c(c2)[nH]c2ccccc23)cc1 | recombinant 12-LOX enzyme (Homo sapiens) | 0.99 |
| COc1cccc2c1[nH]c1ccc(F)cc12 | recombinant 12-LOX enzyme (Homo sapiens) | 8.04 |
| CN(C)CCOc1c(NCc2ccccc2)ccc2c1[nH]c1ccc(F)cc12 | recombinant 12-LOX enzyme (Homo sapiens) | 0.4 |
| CN(C)CCOc1c(N)cc(Cl)c2c1[nH]c1ccc(F)cc12 | recombinant 12-LOX enzyme (Homo sapiens) | 7.93 |
| CN(C)CCCc1cc(-c2cccc3c2NCC3)cc2[nH]c3ccccc3c12 | recombinant 12-LOX enzyme (Homo sapiens) | 2.17 |
| CN(C)CCOc1c(O)ccc2c1[nH]c1ccc(F)cc12 | recombinant 12-LOX enzyme (Homo sapiens) | 3.19 |
| c1ccc(-c2cc(NCCCn3cncn3)cc3c2[nH]c2ccccc23)cc1 | recombinant 12-LOX enzyme (Homo sapiens) | 44.9 |
| CN(C)CCCNc1ccc2c(c1)Nc1ccccc1CC2 | recombinant 12-LOX enzyme (Homo sapiens) | 0.1 |
| CN(C)CC1(COc2c3[nH]c4ccc(F)cc4c3c(F)c3[nH]c4ccc(F)cc4c23)COC1 | recombinant 12-LOX enzyme (Homo sapiens) | 0.1 |
| CN(C)CCOc1c(-c2ccccc2N)ccc2c1[nH]c1ccccc12 [SS20308-0073-01, dihydrochloride] | recombinant 12-LOX enzyme (Homo sapiens) | 49.2 |

Read the next record carefully.
For reference, reported IC50 for CC1(C)CN(CCn2cncn2)c2cc3[nH]c4ccccc4c3cc21 stands at 0.03

###

# target_of_assay: recombinant 12-LOX enzyme (Homo sapiens, UniProt P18054)
# Sequence (P18054 1-663): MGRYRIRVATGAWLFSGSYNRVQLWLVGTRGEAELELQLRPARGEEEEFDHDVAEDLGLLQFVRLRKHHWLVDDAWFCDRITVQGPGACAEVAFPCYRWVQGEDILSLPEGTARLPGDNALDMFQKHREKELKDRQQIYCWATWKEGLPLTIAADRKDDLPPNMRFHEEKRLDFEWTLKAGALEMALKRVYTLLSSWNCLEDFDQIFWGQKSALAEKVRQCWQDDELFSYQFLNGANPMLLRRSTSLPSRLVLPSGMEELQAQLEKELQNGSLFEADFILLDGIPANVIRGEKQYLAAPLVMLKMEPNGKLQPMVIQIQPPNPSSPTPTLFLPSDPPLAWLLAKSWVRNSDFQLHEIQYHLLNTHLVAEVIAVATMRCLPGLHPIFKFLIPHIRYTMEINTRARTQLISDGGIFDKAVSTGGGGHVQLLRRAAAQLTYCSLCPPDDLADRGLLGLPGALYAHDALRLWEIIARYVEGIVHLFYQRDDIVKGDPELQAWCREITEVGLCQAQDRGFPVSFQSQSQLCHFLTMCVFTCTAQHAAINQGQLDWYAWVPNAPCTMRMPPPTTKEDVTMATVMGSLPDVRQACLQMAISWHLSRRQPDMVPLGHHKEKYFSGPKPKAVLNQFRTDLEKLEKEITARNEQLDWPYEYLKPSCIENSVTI
# protocol_summary: 12-LOX fluorescent assay
# Assay type: biochemical
# condition_set: IC50 (μM) values for in vitro lipoxygenase inhibition, 12-LOX, several values in one cell = repeat determinations
test_readout: IC50 (µM)
Respond numerically; units are µM and should not be typed.

For reference, reported IC50 for CN(C)C/C=C\c1c2[nH]c3ccccc3c2cc2[nH]c3ccccc3c12 [SS20308-0126-01] stands at 0.04

###

# target_of_assay: recombinant 12-LOX enzyme (Homo sapiens)
# protocol_summary: 12-LOX fluorescent assay
# Format: biochemical
# condition_set: several values in one cell = repeat determinations; read-out: IC50 (μM) values for in vitro lipoxygenase inhibition, 12-LOX
Criterion: IC50 strictly under 4 µM. Met: True. Not met: False.

| compound | assigned_category |
| --- | --- |
| CN(C)CCOc1cc2c(cc1-c1ccccc1[N+](=O)[O-])[nH]c1ccccc12 | True |
| c1ccc(NC2CCc3[nH]c4ccccc4c3C2)cc1 (stereo not drawn) | True |
| CN(C)CCOc1cc2c3ncccc3[nH]c2c2c1[nH]c1cccnc12 | False |
| Fc1ccc2[nH]c3cc4c(c(F)c3c2c1)CCN4CCn1cncn1 | True |
| CN(C)CCCOc1cccc2c1-c1[nH]c3ccccc3c1CS2 | True |

Please indicate whether the reported IC50 of c1ccc2c(c1)CCc1ccc(NCCn3cncn3)cc1N2 is strictly below 4 µM.
True

###

# target_of_assay: recombinant 15-LOX enzyme (Homo sapiens, UniProt P16050)
# protocol_summary: 15-LOX fluorescent assay
# Format: biochemical
# condition_set: several values in one cell = repeat determinations; read-out: IC50 (μM) values for in vitro lipoxygenase inhibition, 15-LOX
The following compounds are shown together with reported log10(IC50) values.
Form field - Quantity: IC50; Unit: µM; Scale: log10

| compound | endpoint_result |
| --- | --- |
| Fc1cc2[nH]c3ccccc3c2cc1NCC1(Cn2cncn2)COC1 | -0.40 |
| CN(C)CCc1cc(Nc2ccc(F)cc2Cl)cc2c1[nH]c1ccccc12 | -0.24 |

Readout log10(IC50) for c1ccc2c(c1)CCc1cc(C3CCOCC3)c(NCCn3cncn3)cc1N2 , test system recombinant 15-LOX enzyme (Homo sapiens, UniProt P16050), was -0.24

Readout log10(IC50) for CN(C)CCCc1cc(-c2cccc3c2NCC3)cc2[nH]c3ccccc3c12 , test system recombinant 15-LOX enzyme (Homo sapiens, UniProt P16050), was 0.18

Readout log10(IC50) for CN(C)CCOc1c(Nc2ccccc2)ccc2c1[nH]c1ccc(F)cc12 , test system recombinant 15-LOX enzyme (Homo sapiens, UniProt P16050), was 1.20

Readout log10(IC50) for CN(C)CCOc1c(N)cc(Cl)c2c1[nH]c1ccc(F)cc12 , test system recombinant 15-LOX enzyme (Homo sapiens, UniProt P16050), was 0.92

Readout log10(IC50) for CN(C)CCOc1cccc2c1-c1[nH]c3ccccc3c1CS2 , test system recombinant 15-LOX enzyme (Homo sapiens, UniProt P16050), was -0.01

Readout log10(IC50) for CN(C)CCCn1c2c(c3ccccc31)CC(Nc1ccccc1)CC2 (centres unmarked) , test system recombinant 15-LOX enzyme (Homo sapiens, UniProt P16050), was 0.20

Readout log10(IC50) for CN(C)CCOc1cc2c(cc1-c1ccccc1[N+](=O)[O-])[nH]c1ccccc12 , test system recombinant 15-LOX enzyme (Homo sapiens, UniProt P16050), was 0.76

Readout log10(IC50) for CN(C)CCOc1c(-c2ccccc2[N+](=O)[O-])ccc2c1[nH]c1ccccc12 , test system recombinant 15-LOX enzyme (Homo sapiens, UniProt P16050), was 0.33

###

# target_of_assay: recombinant 15-LOX enzyme (Homo sapiens, UniProt P16050)
# Sequence (P16050 1-662): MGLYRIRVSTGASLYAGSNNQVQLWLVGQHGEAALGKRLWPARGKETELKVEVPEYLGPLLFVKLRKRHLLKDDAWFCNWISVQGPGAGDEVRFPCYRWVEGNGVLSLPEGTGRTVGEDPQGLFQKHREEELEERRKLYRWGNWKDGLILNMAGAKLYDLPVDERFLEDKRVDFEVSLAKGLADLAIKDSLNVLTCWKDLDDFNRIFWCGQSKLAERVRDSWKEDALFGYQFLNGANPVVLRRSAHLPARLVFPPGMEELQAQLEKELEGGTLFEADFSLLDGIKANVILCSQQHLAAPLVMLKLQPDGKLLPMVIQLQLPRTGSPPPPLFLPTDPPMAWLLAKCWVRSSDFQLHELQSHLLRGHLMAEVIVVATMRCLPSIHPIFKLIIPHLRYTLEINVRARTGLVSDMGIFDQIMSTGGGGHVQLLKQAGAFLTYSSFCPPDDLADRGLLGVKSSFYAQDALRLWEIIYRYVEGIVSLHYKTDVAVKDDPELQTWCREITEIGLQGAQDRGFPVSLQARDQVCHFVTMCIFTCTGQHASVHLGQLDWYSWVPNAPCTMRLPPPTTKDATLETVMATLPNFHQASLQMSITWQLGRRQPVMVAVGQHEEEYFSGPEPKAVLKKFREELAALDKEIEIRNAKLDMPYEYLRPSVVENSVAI
# protocol_summary: 15-LOX fluorescent assay
# Type: biochemical
# condition_set: IC50 (μM) values for in vitro lipoxygenase inhibition, 15-LOX, several values in one cell = repeat determinations
test_readout: IC50 (µM)
Respond numerically; units are µM and should not be typed.

For reference, reported IC50 for CN(C)CCCc1c(O)ccc2c1[nH]c1ccc(F)cc12 [SS20308-0068-01] stands at 1.76

For reference, reported IC50 for CN(C)CCCc1c2[nH]c3ccccc3c2cc2[nH]c3ccccc3c12 [SS20308-0104-01] stands at 0.02

For reference, reported IC50 for CN(CCn1cncn1)c1cc2c(cc1-c1ccccc1)[nH]c1ccc(F)cc12 [SS20308-0182-01] stands at 1.4
